# Tested on: RPMI-8226 leukemia
# measurement-notes: NCI tumour cell line growth inhibition, 48 h
This section presents compounds with their documented TGI values.
# value in µM; strip the unit string

O=c1oc2c(Cl)cc(Cl)cc2cc1-c1cn2c(n1)sc1ccccc12 89.1

Next item in the queue.
// TGI lookup, key: Clc1ccc(Nc2nnc(COc3ccccc3)c3ccccc23)cc1
6.96

###

# System: OVCAR-3 ovarian
# measurement-notes: NCI tumour cell line growth inhibition, 48 h
This section presents compounds with their documented TGI values.

Some solved entries appear below for comparison.
compound	system-under-test	TGI
O=S(=O)(O)c1ccc([Se][Se]c2ccc(S(=O)(=O)O)cc2)cc1	OVCAR-3 ovarian	> 100 µM
C#CCN1C(=O)CN2C(Cl)(Cl)C2(c2ccccc2)c2cc(Cl)ccc21 (stereo not drawn)	OVCAR-3 ovarian	> 100 µM

// TGI lookup, key: CCN(CC(O)COc1ccc2c(c1)[n+]([O-])nc(N)[n+]2[O-])C(C)=O (stereo not drawn)
> 100 µM

Same for COc1cc2cc(C(=O)Nc3ccccc3)c(N)nc2cc1OC
> 100 µM

Same for c1ccc(C(OCCN2CC3CCC(C2)N3)c2ccccc2)cc1
> 100 µM

Same for COc1c(C(=O)CC2c3c(cc4oc(C)cc(=O)c4c3OC)OC(=N)C2c2nc3ccccc3[nH]2)c(O)c(OC)c2occc12 (stereo not drawn)
> 100 µM

Same for CN(N=O)N1C(=O)SCC(c2ccccc2)(c2ccccc2)C1=O
> 100 µM
